System: UACC-257 melanoma
Assay: NCI tumour cell line growth inhibition, 48 h
Reported Metric: GI50

Cc1ncc(C(=O)Nc2ccc(CN3CCN(C)CC3)c(C(F)(F)F)c2)cc1C#Cc1cnc(NC2CC2)c2ncccc12 | 0.719 µM
C[C@H](Cn1ncnn1)Nc1ncc2cc(Oc3ccc(F)cc3F)c(=O)n(C)c2n1 | > 25 µM
COc1ccc(/C=C2/CCc3cc4ccc(OC)cc4[o+]c32)c(O)c1 | 15.8 µM

// recorded GI50 for `O=C1C(Cl)=C(Nc2ccccc2)C(=O)c2ccccc21` : 1.83 µM

###

Test system: HL-60(TB) leukemia
Test: NCI tumour cell line growth inhibition, 48 h
Reported Metric: TGI (µM)
One number for each entry, in µM.

Example cases with answers are listed next.
O=C(c1cc2ccccc2cc1O)N1CCCCC1 | 46.9
Cc1nnc(N/N=C(/C(=O)C(C#N)c2ccccc2)C(C#N)c2ccccc2)n1N (stereo unspecified) | 57.8
O=C1C(SCCO)=C(SCCO)C(=O)c2ccccc21 | 7.91
Cc1c(S(=O)(=O)/N=C(\N)Nc2ccc(Cl)cc2)sc2ccc(Cl)cc12 | 63.5

Could I get TGI for every one of these entries?
1. CCCCCCCCCCN=C(c1ccc(N(C)C)cc1)c1ccc(N(C)C)cc1
2. CNC(=O)c1cc2c(Oc3ccc(NC(=O)C4(C(=O)Nc5ccc(F)cc5)CC4)cc3)ccnc2cc1OC

Reply |
[18.9, 6.63]

Short answer for O=C1/C(=C\c2cccc(Oc3ccccc3)c2)S(=O)(=O)C(c2ccccc2)N1Cc1ccccc1 (stereo unspecified) : TGI was 57.7

###

Test system: OVCAR-3 ovarian
Assay: NCI tumour cell line growth inhibition, 48 h
Reported Metric: GI50

CCOC1Oc2ccccc2-c2oc(=O)c(Sc3ccc(C)cc3)cc21 (configuration not stated) | 18.1 µM
C[C@H](Cn1ncnn1)Nc1ncc2cc(Oc3ccc(F)cc3F)c(=O)n(C)c2n1 | > 25 µM
COc1ccc(/C=C2/CCc3cc4ccc(OC)cc4[o+]c32)c(O)c1 | 2.48 µM
O=S(=O)(CCOCc1ccc(-c2ccc3ncnc(Nc4ccc(OCc5cccc(F)c5)c(Cl)c4)c3c2)o1)c1ccccc1 | > 25 µM
O=C(O)CCC(NC(=S)S)C(=O)O.[Na+].[Zn+2] (configuration not stated) | > 50 µM
CCN(CC)CCNC(=O)c1cn2ncnc(Oc3ccc(NC(=O)Nc4ccc(Cl)c(C(F)(F)F)c4)c(F)c3)c2c1C | 1.77 µM

Now take the following compound into account.
Per the record, `O=S1(=O)NCCCN1CCNc1nccc(-c2c(-c3cccc(O)c3)nc3sccn23)n1` has GI50 of 19.4 µM

###

Would you mind telling me the reported GI50 of each entry?
System: EKVX NSCLC
Assay: NCI tumour cell line growth inhibition, 48 h

CC(=O)[CH-]C(C)=O.[CH2-]C.[CH2-]C.[Tl+3] | > 100000 nM
Cn1c2ccccc2c2c(=O)c3ccccc3[nH]c21 | 44100 nM
O=C1C(Cl)=C(Nc2ccccc2)C(=O)c2ccccc21 | 2210 nM
O=C(/C=C/c1ccccc1)CC(c1ccccc1)N1CCOCC1 (stereo unspecified) | 9520 nM
CCCCCCCCCCCC[n+]1ccccc1 (tested in a mixture with another compound) | 428 nM

Note: attention shifts to another entry.
response.value for `COCCOCCOCc1n(Cc2ccc3ccccc3n2)c2ccccc2[n+]1Cc1ccc2ccccc2c1` (field: GI50) = 1270 nM
